STUDY TARGET: Pyruvate Dehydrogenase Kinase 3 (PDK3) (Homo sapiens)
Sequence (Q15120 whole entry): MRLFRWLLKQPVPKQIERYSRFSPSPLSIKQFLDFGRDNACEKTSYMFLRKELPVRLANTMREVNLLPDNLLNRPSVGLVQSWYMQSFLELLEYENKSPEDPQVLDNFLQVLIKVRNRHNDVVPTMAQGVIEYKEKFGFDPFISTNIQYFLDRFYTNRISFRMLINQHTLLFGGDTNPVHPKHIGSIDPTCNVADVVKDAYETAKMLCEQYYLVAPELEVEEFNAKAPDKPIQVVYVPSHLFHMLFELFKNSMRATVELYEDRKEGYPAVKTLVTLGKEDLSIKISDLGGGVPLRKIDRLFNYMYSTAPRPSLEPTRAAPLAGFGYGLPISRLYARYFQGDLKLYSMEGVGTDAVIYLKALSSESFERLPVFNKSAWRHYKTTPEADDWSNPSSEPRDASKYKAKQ
pIC50: −log10 of the molar value.
MEASURED ATTRIBUTE: pIC50

- Cc1ccc(O)cc1: 5.45
